- protocol-text: Cytostatic activity in CEM cell cultures
- Assay type: cell-based
- condition-info: human, CEM T-lymphocyte cells
We label by threshold. Values of CC50 strictly beneath 40 µM are label 1. Values of 40 µM and up are label 0.

Previously resolved entries follow.
[[record]]
compound = "C[C@H](NP(=O)(OCCOCn1cnc2c(=O)[nH]c(N)nc21)Oc1ccccc1)C(=O)OCc1ccccc1 (some centres unmarked) [Cf 2648]"
category_label = "label 1"

[[record]]
compound = "C[C@H](NP(=O)(OCCOCn1cnc2c(=O)[nH]c(N)nc21)Oc1cccc2ccccc12)C(=O)OCc1ccccc1 (some centres unmarked) [Cf 2574]"
category_label = "label 1"

[[record]]
compound = "Nc1nc2c(ncn2COCCOP(=O)(N[C@@H](Cc2ccccc2)C(=O)OCc2ccccc2)Oc2ccccc2)c(=O)[nH]1 (some centres unmarked) [Cf 2650]"
category_label = "label 0"


Hello, is CC50 of the following compound strictly smaller than 40 µM? CCCOC(=O)[C@H](C)NP(=O)(OCCOCn1cnc2c(=O)[nH]c(N)nc21)Oc1cccc2ccccc12 (some centres unmarked) [Cf 2629]
label 1

I'd appreciate it if you could check whether Nc1nc(O)c2ncn(COC(CO)CO)c2n1 [GCV, Ganciclovir, reference compound] has CC50 smaller than 40 µM.
label 0

Just wondering, is CC50 of COC(=O)[C@H](C)NP(=O)(OCCOCn1cnc2c(=O)[nH]c(N)nc21)Oc1cccc2ccccc12 (some centres unmarked) [Cf 2649] below 40 µM?
label 0

Is it true that CC50 reported for Nc1nc2c(ncn2COCCO)c(=O)[nH]1 [ACV, Acyclovir, reference compound] is less than 40 µM?
label 0

Criterion: CC50 strictly below 40 µM. Is it met by COC(=O)[C@H](C)NP(=O)(OCCOCn1cnc2c(=O)[nH]c(N)nc21)Oc1ccccc1 (some centres unmarked) [Cf 1811] ?
label 0
